- ASSAY EXPLANATION: soluble on expression in E. coli; label from the status in PepcDB or PDB records
OBSERVABLE: soluble on expression in E. coli

Consider the worked cases shown below.
ENTRY SEQUENCE	OBSERVABLE	OBS VALUE
MGSDKIHHHHHHMKISGHTSVVVAEKLLSEAKFSNLTQSAVVMISQRLCLGIILTGFITNQALAAEPKQSVVPISSVLATNYNKTQIHVTPVHSLVPKLSTKRANFKQETTTQDSVYLADWVLDSGDNQQMPFAIVDKKAAKVYVFDALGQLTGAAPALLGLAVGDDSIPNIGNMALASIKPEQRTTPAGRFVVALGKNIHNKEVLWIDYDAAISLHRVVTSSPKERRLQRLESQNLLERRISYGCINVPVNFYDQVVSPAFTGTNGVVYVLPDTRSIQEVFGSYSEPPRVYRRQIYLSQAAMPDRVKLS	soluble on expression in E. coli	not soluble
MAKLRPYYEESQSAYDISDDFFALFLDPTWVYTCAYFERDDMTLEEAQLAKVDLALDKLNLEPGMTLLDVGCGWGGALVRAVEKYDVNVIGLTLSRNHYERSKDRLAAIGTQRRAEARLQGWEEFEENVDRIVSFEAFDAFKKERYLTFFERSYDILPDDGRMLLHSLFTYDRRWLHEQGIALTMSDLRFLKFLRESIFPGGELPSEPDIVDNAQAAGFTIEHVQLLQQHYARTLDAWAANLQAARERAIAVQSEEVYNNFMHYLTGCAERFRRGLINVAQFTMTK	soluble on expression in E. coli	soluble
MYTAIPQSGSPFPGSVQDPGLHVWRVEKLKPVPVAQENQGVFFSGDSYLVLHNGPEEVSHLHLWIGQQSSRDEQGACAVLAVQLDDYLGGRPVQHREVQGNESDLFMSYFPRGLKYQEGGVESGFKHVVPNEVVVQRLYQVKGAKNIRATERALNWDSFNTGDCFILDLGQNIFAWCGGKSNILERNKARDLALAIRDSERQGKAQVEIVTDGEEPAEMIQVLGPKPALKEGNPEEDLTADKANAQAAALYKVSDATGQMNLTKVADSSPFALELLISDDCFVLDNGLCGKIYIWKGRKANEKERQAALQVAEGFISRMQYAPNTQVEILPQGRESPIFKQFFKDWK	soluble on expression in E. coli	soluble
MAGSDPAAPAAPAAAAPDTVKILIAGGFGVGKTTMVGSVSEIAPLRTEEPLTAAGLDVDDLDGIAEKDATTVALDFGRITIGSELVLYLFGTPGQQRFWFMWNDLAIGALGAVVLIDVRRPESSFAAVDFFERRGIPFVIGVNGFHGLHPYTPEEIREALALPERAQVLLCDARERESCRDVLIALIDQLIAARLEHHHHHH	soluble on expression in E. coli	not soluble

Please turn your attention to the following entry.
Q: Read the entry MKIGIVGATGYGGTELVRILSHHPHAEECILYSSSGEGNVYSEGYPHLTGLADQQLKPIDMNTIKHEIDIMFLAAPPGVSSELTPKLADAGITVIDLSGDLRIKEPAEYEKWYKRTAAPKAVIQEAVYGLAELNQLQIQQAKLIANPGCFPTAVLLGLAPLAQKKLLDESFVIVDAKTGVSGAGRKASMGTHFSELNDNFKIYKVNEHQHTPEIEQALNEWQPGLGPITFSAHLVPMTRGIMATMYTRLTCDLTADDLHDLYSEFYQDSYFVRVRPKGQYPQTKEVYGSNFCDIAVTLDERTNRVTIVSVIDNLMKGAAGQAVQNFNLMNGWNEETGLTIITPIYP and write its reported soluble on expression in E. coli.
A: not soluble

All figures here come from the DeepSol protein solubility set.
